ASSAY_INFO: NCI Yeast Anticancer Drug Screen. Data for the bub3 strain (AID 167)
CONDITION_NOTES: S. cerevisiae bub3 mutant strain, at 5.0 µM (retest, dose inferred, filed as 0.5), hits give high values
The panel holds about 79,000 compounds, 15% with a hit somewhere; the sample as a whole holds those more often. Calls of active or inactive are those of the source. Rule as the data show it: active = growth inhibition above about 70%; inactive = the rest.
REPORTED_ENDPOINT: growth inhibition

• CCCCCCN(CCCCCC)CCC(=O)c1ccc2cc(Cl)c3ccccc3c2c1 = 5% (inactive)
• Cc1ccc(C)c([N+](=O)[O-])c1 = -1% (inactive)
• COc1cc(C2c3cc4c(cc3OC(NNc3ccccc3)C2C)OCO4)cc(OC)c1O (configuration not stated) = -7% (inactive)
• c1ccc2c(c1)[nH]c1c[n+]3c(c[n+]12)[nH]c1ccccc13 = -8% (inactive)
• CCCCCCCCCCCC(=O)OCCN(CCOC(=O)CCCCCCCCCCC)C(=O)COC(=O)CCCCCCCCCCC = -2% (inactive)
• COc1ccc(C(=O)O)c(-c2c(C(=O)O)ccc(OC)c2OC(C)=O)c1 = 0% (inactive)
• NC(=Nc1ccccc1)c1ccc2c(c1)c1c(n2Cc2ccccc2)CCCC1 = -2% (inactive)
• COc1ccc2cc(CNCCCCCCCCNCc3ccc4cc(OC)ccc4c3)ccc2c1 = 9% (inactive)
• CCCC(=O)Oc1ccc([N+](=O)[O-])cc1 = 4% (inactive)
• CC(C)(C)CC(C)(C)c1ccc(O)c(Cl)c1 = -4% (inactive)
• CC1=NN(C(=O)c2ccncc2)C(=O)C1N=Nc1ccc(C)c([N+](=O)[O-])c1 (configuration not stated) = 1% (inactive)
• CCc1cccc(C(C)(C)C)c1NC(=S)/N=C/C(C(=O)c1ccccc1)=C(\O)c1ccccc1 = -12% (inactive)
• CN(Nc1ccc(Cl)cc1)c1ccc(Cl)cc1 = 9% (inactive)
• CN(C)C=C1C(Cl)=C(C=O)CC(C=O)=C1Cl = -2% (inactive)
• O=[N+]([O-])c1cnc(Sc2cncc[n+]2[O-])s1 = 99% (active)
• O=C1C=CC2C(=O)c3ccccc3C(=O)C2=C1 (configuration not stated) = 1% (inactive)
• c1cnc2c(Oc3nc(Oc4cccc5cccnc45)nc(Oc4cccc5cccnc45)n3)cccc2c1 = -2% (inactive)
• CC(C)c1ccc(O)c(O)c(=O)c1 (tested in a mixture with another compound) = 99% (active)
• CC(=O)Oc1ccc(C(C)(C)CC(C)(C)C)cc1 = 0% (inactive)
• CCCNCC/C=C/[Si](C)(C)C = -2% (inactive)
• Cc1cn(C(C#N)=C(C#N)C#N)c2ccccc12 = -2% (inactive)
• CN(C(=O)c1cccs1)C(=S)N1CCN(c2ccccc2)CC1 = -14% (inactive)
• CCN(CC)c1cc(Nc2c3ccc(Cl)cc3nc3cc(Cl)ccc23)ccc1O = -5% (inactive)
• O=c1oc(-c2ccccc2Br)ns1 = -8% (inactive)
• Fc1cccc(C2SCc3nc4ccccc4n32)c1F (configuration not stated) = -5% (inactive)
• CC1C/C(=N\N(C)C)C(C#N)(C#N)C1(C#N)C#N (configuration not stated) = 47% (inactive)
• Oc1c2c(c(O)c3ncccc13)C1C=CC2CC1 (configuration not stated) = 2% (inactive)
• CCCCN=C(c1ccc(O)cc1)c1ccc(OC)cc1O = -5% (inactive)
• Clc1ccc([O][In]([O]c2ccc(Cl)cn2)[O]c2ccc(Cl)cn2)nc1 = -26% (inactive)
• O=[N+]([O-])c1cccc2c[n+](Cc3ccccc3)ccc12 = -7% (inactive)
• O=C(O)Cc1ccc2c3c(cccc13)CC2 = 16% (inactive)
• O=C1C=CC(=O)c2c(O)c(N3CCN(CCOCCO)CC3)c(Br)c(O)c21 = 25% (inactive)
• O=C1C=CC(=NN=C(c2ccccc2)c2ccccc2)C=C1 = -14% (inactive)
• Nc1ccccc1N=Cc1ccccc1O = -12% (inactive)
• Cc1cccc(NC(=O)C(=O)C(C2OC(=O)c3ccccc32)[N+](=O)[O-])c1C (configuration not stated) = -13% (inactive)
• OB1c2ccccc2CCc2ccccc21 = -25% (inactive)
• CC1=C(C(=O)Nc2ccccc2)C(c2ccc(C(C)C)cc2)C(C(=O)Nc2ccccc2)=C(C)N1 = 2% (inactive)
• N#CC1(C#N)C2C=CC(c3coc4cccc2c34)C1(C#N)C#N (configuration not stated) = 22% (inactive)
• CCO/C=C1\C(=O)C=C(C)CC1c1ccc(OC)c(OC)c1OC (configuration not stated) = -8% (inactive)
• COc1ccc(N2CCN(CC(O)COc3cc4c(c5c3CCCC5)CCCC4)CC2)cc1 (configuration not stated) = 13% (inactive)
• CCCCCCCCC1OC1CCCCCCCC(=O)OCC1CO1 (configuration not stated) = -3% (inactive)
• Oc1c(Cl)cc(C(c2cc(Cl)c(O)c(Cl)c2)C(Cl)(Cl)Cl)cc1Cl = 96% (active)
• CCCC(C)c1ccc(O)cc1 (configuration not stated) = -2% (inactive)
• CN(C)c1cc(N(C)C)c2cc(-c3ccccc3)sc2n1 = -5% (inactive)
• Nc1ccc(Cl)c2ccccc12 = 6% (inactive)
• Nc1ccc2c(c1)[nH]c(=O)c1cc(Cl)c(Cl)cc12 = -1% (inactive)
• OCc1cc2c([nH]c3ccccc32)c(C(O)CO)n1 (configuration not stated) = 2% (inactive)
